# TESTED_SYSTEM: muscarinic receptor subtype M1 (Homo sapiens)
# Sequence (P11229 1-460): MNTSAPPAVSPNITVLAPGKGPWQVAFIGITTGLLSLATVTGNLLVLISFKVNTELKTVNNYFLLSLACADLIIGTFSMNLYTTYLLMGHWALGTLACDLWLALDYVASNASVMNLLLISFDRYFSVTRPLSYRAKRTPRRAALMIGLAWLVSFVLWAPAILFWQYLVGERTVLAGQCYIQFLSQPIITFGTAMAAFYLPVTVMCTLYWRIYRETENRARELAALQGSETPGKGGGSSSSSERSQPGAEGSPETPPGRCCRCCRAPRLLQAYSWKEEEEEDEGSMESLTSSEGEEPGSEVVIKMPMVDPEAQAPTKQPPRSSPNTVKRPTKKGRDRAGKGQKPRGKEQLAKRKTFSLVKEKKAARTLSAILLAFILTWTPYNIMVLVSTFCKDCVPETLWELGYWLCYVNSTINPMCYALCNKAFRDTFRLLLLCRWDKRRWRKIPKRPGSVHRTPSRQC
MEASURED_PARAMETER: Ki (pM)
Field: numeric (pM). Do not append units.

For Cc1ccc(O)c([C@H](CCN(C(C)C)C(C)C)c2ccccc2)c1 [tolterodine, reference compound] , what is its reported Ki?
790
